These entries and their values trace back to patent US20210382058A1.

Test system: NCI-60 cancer cell lines
Experiment: NCI-60 cancer cell line drug screen (GI50, MGM)
Assay type: cell-based, human
Details: Homo sapiens, TK-10, Renal Cancer, TK-10; read-out: Antiproliferative Activities [GI50 (μM)]
Listing of recorded GI50 by entry.
Use µM as the unit, but write only the number.

Past entries and their recorded results:
O=C1c2ccccc2-c2c1c1ccccc1c(=O)n2CCCNCCO = 0.41
COc1ccc2c(c1)C(=O)c1c-2n(CCCN2CCOCC2)c(=O)c2ccccc12 = 4.63
COc1cnc2c(c1)C(=O)c1c-2n(CCCNCCN2CCOCC2)c(=O)c2cc([N+](=O)[O-])ccc12 = 0.73

API: the following record is the query input.
Form field GI50, entry `COc1cnc2c(c1)C(=O)c1c-2n(CCCN2CCCC2)c(=O)c2cc([N+](=O)[O-])ccc12` : 0.37

----------
System: calf thymus dsDNA
Experiment: Competition fluorescence displacement, competitor dsDNA
Type: binding
Details: competitor binding affinity; Ki refers to the base-pair concentration; 20 nM compound, 20° C., pH 7, 100 mM K+
measured.parameter: Ki (nM)
Express your answer in nM, writing the number without its unit.

Consider the following illustrative entries.
COc1cnc2c(c1)C(=O)c1c-2n(CCCN2CCCC2)c(=O)c2cc([N+](=O)[O-])ccc12 = 5170
COc1cnc2c(c1)C(=O)c1c-2n(CCCNC2=NCCS2)c(=O)c2cc([N+](=O)[O-])ccc12 = 3620

Pending compound:
The recorded Ki for `O=C1c2ccccc2-c2c1c1ccccc1c(=O)n2CCCNCCO` is 2140

----------
Tested on: NCI-60 cancer cell lines
Assay: NCI-60 cancer cell line drug screen (GI50, MGM)
Type: cell-based, human
Conditions: Homo sapiens, MCF7, Breast Cancer, MCF7; read-out: Antiproliferative Activities [GI50 (μM)]
Reported GI50 by item:
# output: bare number, implied unit µM

Below, 5 compounds whose answers are already recorded.
CN(C)CCCn1c2c(c3ccc(-c4ccn[nH]4)cc3c1=O)C(=O)c1ccccc1-2 = 0.04
COc1cnc2c(c1)C(=O)c1c-2n(CCCNCCN2CCOCC2)c(=O)c2cc([N+](=O)[O-])ccc12 = 0.03
COc1cc2c(cc1O)-c1c(c3ccc([N+](=O)[O-])cc3c(=O)n1CCCN)C2=O = 0.16
CNCCCn1c2c(c3ccc(F)cc3c1=O)C(=O)c1cc(OC)cnc1-2 = 0.03
COc1cc2c(cc1O)-c1c(c3ccc([N+](=O)[O-])cc3c(=O)n1CCCN1CCOCC1)C2=O = 0.05

Observed GI50 on NCI-60 cancer cell lines, entry `COc1cnc2c(c1)C(=O)c1c-2n(CCCNC(C)C)c(=O)c2cc(F)ccc12` , equals 0.03

----------
Tested on: NCI-60 cancer cell lines
Experiment: NCI-60 cancer cell line drug screen (GI50, MGM)
Type: cell-based, human
Settings: Homo sapiens, LOX IMVI, Melanoma, LOX IMVI; read-out: Antiproliferative Activities [GI50 (μM)]
We begin with a simple list: items and their reported GI50.

COc1cnc2c(c1)C(=O)c1c-2n(CCCNCCN2CCOCC2)c(=O)c2cc([N+](=O)[O-])ccc12 = 0.04 µM
CN(C)CCCn1c2c(c3ccc(-c4ccn[nH]4)cc3c1=O)C(=O)c1ccccc1-2 = 0.1 µM
COc1cc2c(cc1O)-c1c(c3ccc([N+](=O)[O-])cc3c(=O)n1CCCN1CCOCC1)C2=O = 0.09 µM
O=C1c2ccccc2-c2c1c1ccccc1c(=O)n2CCCNCCO = 0.05 µM
COc1ccc2c(c1)C(=O)c1c-2n(CCCN2CCOCC2)c(=O)c2ccccc12 = 1.34 µM

What the record says about `CN(C)CCCn1c2c(c3ccc(N4CCNCC4)cc3c1=O)C(=O)c1ccccc1-2` : GI50 is 0.15 µM

Memo: `COc1cc2c(cc1O)-c1c(c3ccc([N+](=O)[O-])cc3c(=O)n1CCCN)C2=O` , reported GI50: 0.3 µM

`COc1cnc2c(c1)C(=O)c1c-2n(CCCNC2=NCCS2)c(=O)c2cc([N+](=O)[O-])ccc12` has a reported GI50 of < 0.01 µM

What the record says about `CNCCCn1c2c(c3ccc(Cl)cc3c1=O)C(=O)c1cc(OC)cnc1-2` : GI50 is 0.16 µM

----------
System: NCI-60 cancer cell lines
Assay: NCI-60 cancer cell line drug screen (GI50, MGM)
Assay type: cell-based, human
Conditions: Homo sapiens, NCI-H322M, Non-Small Cell Lung Cancer, NCI-H322M; read-out: Antiproliferative Activities [GI50 (μM)]
Experimental: Cancer cells were incubated with the test compounds at five concentrations ranging from 100 μM to 10 nM for 48 h. […] The approximate average of GI50 values across the entire panel of NCI-60 cancer cell lines for each compound was recorded as the MGM value.
measured.parameter: log10 GI50 (log10 of the value in µM)
Response schema: value (number) is log10 of GI50 in units of µM.

Worked set:
CN(C)CCCn1c2c(c3cccnc3c1=O)C(=O)c1ccccc1-2 [Compound 20] = 0.39
COc1cnc2c(c1)C(=O)c1c-2n(CCCNC2=NCCS2)c(=O)c2cc([N+](=O)[O-])ccc12 [Compound 12] = -1.40
COc1cc2c3c(n(CCCNCCN)c(=O)c2cc1OC)-c1cc2c(cc1C3=O)OCO2 [Compound 46] = -0.28
COc1cc2c(cc1O)-c1c(c3ccc([N+](=O)[O-])cc3c(=O)n1CCCN1CCOCC1)C2=O [Compound 36] = -0.18
COc1cc2c3c(n(CCCN4CCC(N)CC4)c(=O)c2cc1OC)-c1cc2c(cc1C3=O)OCO2 [Compound 48] = 0.02
COc1cc2c3c(n(CCCN4CCN(C)CC4)c(=O)c2cc1OC)-c1cc2c(cc1C3=O)OCO2 [Compound 49] = 1.19
CNCCCn1c2c(c3ccc(F)cc3c1=O)C(=O)c1cc(OC)cnc1-2 [Compound 6] = -0.35

The record that follows has no log10 GI50 shown yet.
Summary for this compound, COc1ccc2c(c1)C(=O)c1c-2n(CCCN2CCOCC2)c(=O)c2ccccc12 [Compound 19] : log10 GI50 is 0.74

----------
Tested on: NCI-60 cancer cell lines
Experiment: NCI-60 cancer cell line drug screen (GI50, MGM)
Assay type: cell-based, human
Conditions: Homo sapiens, HOP-92, Non-Small Cell Lung Cancer, HOP-92; read-out: Antiproliferative Activities [GI50 (μM)]
measured.parameter: GI50 (µM)
// return numeric value only (unit: µM, not printed)

CN(C)CCCn1c2c(c3ccc(N4CCNCC4)cc3c1=O)C(=O)c1ccccc1-2 = 1.72
COc1cc2c(cc1O)-c1c(c3ccc([N+](=O)[O-])cc3c(=O)n1CCCN1CCOCC1)C2=O = 0.28
COc1cnc2c(c1)C(=O)c1c-2n(CCCNCCN2CCOCC2)c(=O)c2cc([N+](=O)[O-])ccc12 = 0.87
COc1ccc2c(c1)C(=O)c1c-2n(CCCN2CCOCC2)c(=O)c2ccccc12 = 4.47
COc1cc2c3c(n(CCCN4CCN(C)CC4)c(=O)c2cc1OC)-c1cc2c(cc1C3=O)OCO2 = 19.8

According to the records, this molecule `COc1cc2c3c(n(CCCn4ccnc4)c(=O)c2cc1OC)-c1cc2c(cc1C3=O)OCO2` displays GI50 of 0.19

What the record says about `CNCCCn1c2c(c3ccc(F)cc3c1=O)C(=O)c1cc(OC)cnc1-2` : GI50 is 0.37

GET /value?item= `CN(C)CCCn1c2c(c3ccc(-c4ccn[nH]4)cc3c1=O)C(=O)c1ccccc1-2` &field=GI50 returns 0.13

----------
System: NCI-60 cancer cell lines
Test: NCI-60 cancer cell line drug screen (GI50, MGM)
Type: cell-based, human
Conditions: Homo sapiens, HOP-62, Non-Small Cell Lung Cancer, HOP-62; read-out: Antiproliferative Activities [GI50 (μM)]
# GI50 per record follows

Use these answered entries as a reference point.
COc1cc2c3c(n(CCCN)c(=O)c2cc1OC)-c1cc2c(cc1C3=O)OCO2 = 0.06 µM
COc1cc2c(=O)n(CCCN3CCOCC3)c3c(c2cc1OCCCN1CCCC1)C(=O)c1cc2c(cc1-3)OCO2 = 0.19 µM
COc1cc2c3c(n(CCCn4ccnc4)c(=O)c2cc1OC)-c1cc2c(cc1C3=O)OCO2 = < 0.01 µM
COc1cc2c3c(n(CCCN4CCN(C)CC4)c(=O)c2cc1OC)-c1cc2c(cc1C3=O)OCO2 = 18 µM
COc1cc2c(cc1O)-c1c(c3ccc([N+](=O)[O-])cc3c(=O)n1CCCN1CCOCC1)C2=O = 0.12 µM

GI50 in this record for `CNCCCn1c2c(c3ccc(Cl)cc3c1=O)C(=O)c1cc(OC)cnc1-2` : 0.22 µM

Just so you know, measured GI50 for `COc1cnc2c(c1)C(=O)c1c-2n(CCCN2CCCC2)c(=O)c2cc([N+](=O)[O-])ccc12` came out at < 0.01 µM
